Molecular target: T1, 125I-labeled NMDAR2B immunogen peptide (human)
T1 construct: also called ^125I-labeled (radiolabel on the N-terminal tyrosine) NMDAR2B immunogen peptide
T1 peptide: Y(125I)KDAHEKDDF-NH2
Assay: radioimmunoassay with 125I-labeled and free peptide
Ends that are not written are not given here. * marks the point of attachment. 125I = [125I]*
endpoint-name: binding result

binder="Fab5 (Fab, V domains shown, also called Ab5 (IgG form with the same VH and VL)) VH: EVQLVESGGGLVQPGGSLRLSCAASGFNLYSSYMHWVRQAPGKGLEWVASIYSSYSSTYYADSVKGRFTISADTSKNTAYLQMNSLRAEDTAVYYCARTVRGSKKPYFSGWAMDYWGQGTLVTVSS VL: DIQMTQSPSSLSASVGDRVTITCRASQSVSSAVAWYQQKPGKAPKLLIYSASSLYSGVPSRFSGSRSGTDFTLTISSLQPEDFATYYCQQGAGLITFGQGTKVEIK" observed_measurement="no binding"
binder="Fab8 (Fab, V domains shown, also called Ab8 (IgG form with the same VH and VL)) VH: EVQLVESGGGLVQPGGSLRLSCAASGFNIYYSYMHWVRQAPGKGLEWVASISSSYGYTYYADSVKGRFTISADTSKNTAYLQMNSLRAEDTAVYYCARTVRGSKKPYFSGWAMDYWGQGTLVTVSS VL: DIQMTQSPSSLSASVGDRVTITCRASQSVSSAVAWYQQKPGKAPKLLIYSASSLYSGVPSRFSGSRSGTDFTLTISSLQPEDFATYYCQQASYLITFGQGTKVEIK" observed_measurement="no binding"
binder="Fab9 (Fab, V domains shown, also called Ab9 (IgG form with the same VH and VL)) VH: EVQLVESGGGLVQPGGSLRLSCAASGFNLSYSSMHWVRQAPGKGLEWVASISPYSGSTYYADSVKGRFTISADTSKNTAYLQMNSLRAEDTAVYYCARYYWYYYYGFDYWGQGTLVTVSS VL: DIQMTQSPSSLSASVGDRVTITCRASQSVSSAVAWYQQKPGKAPKLLIYSASSLYSGVPSRFSGSRSGTDFTLTISSLQPEDFATYYCQQYVGYGSPITFGQGTKVEIK" observed_measurement="no binding"
